Assay: Drug level in ICR mouse brain at 10 mg/kg, ip measured after 0.5 hrs by LC-MS/MS analysis
Conditions: read-out: Drug uptake
QUANTITY MEASURED: concentration at 0.5 h

Tell us which concentration at 0.5 h value is on record for CC(C)COc1ccc(CNC(=O)N(Cc2ccc(F)cc2)C2CCN(C)CC2)cc1
3010 ng/g

###

Test: Ratio of drug level in brain to plasma of ICR mouse at 10 mg/kg, ip measured after 0.5 hrs by LC-MS/MS analysis
Details: read-out: BPR
QUANTITY MEASURED: Kp at 0.5 h
Numbers only.

Complete the entry with Kp at 0.5 h for CC(C)COc1ccc(CNC(=O)N(Cc2ccc(F)cc2)C2CCN(C)CC2)cc1 [PIMAVANSERIN]
4.98
